assay text: Stability of compound in RPMI medium at 100 uM after 3 days by UPLC-MS analysis
Format: physicochemical
conditions: read-out: Stability
parameter measured: remaining at 72 h, 100 µM

Item under review: CC(C)CN(C[C@@H](OC(=O)CCCSSCCCC(=O)OC[C@@H]1C=C[C@H](n2cnc3c(NC4CC4)nc(N)nc32)C1)[C@H](Cc1ccccc1)NC(=O)O[C@H]1CO[C@H]2OCC[C@H]21)S(=O)(=O)c1ccc(N)cc1 . Reported remaining at 72 h, 100 µM?
> 95%

----------
assay text: Stability of compound in RPMI medium at 100 uM after 1 week by UPLC-MS analysis
Format: physicochemical
conditions: read-out: Stability
parameter measured: remaining at 168 h, 100 µM

Item under review: Cc1c(OC(=O)CCCSSCCCC(=O)OC[C@@H]2C=C[C@H](n3cnc4c(NC5CC5)nc(N)nc43)C2)cccc1C(=O)N[C@@H](CSc1ccccc1)[C@H](O)CN1C[C@H]2CCCC[C@H]2C[C@H]1C(=O)NC(C)(C)C . Reported remaining at 168 h, 100 µM?
> 95%

----------
assay text: Stability of compound in PBS after 3 days by UPLC-MS analysis
Format: physicochemical
conditions: read-out: Stability
parameter measured: remaining at 72 h

Item under review: CC(C)CN(C[C@@H](OC(=O)CCCSSCCCC(=O)OC[C@@H]1C=C[C@H](n2cnc3c(NC4CC4)nc(N)nc32)C1)[C@H](Cc1ccccc1)NC(=O)O[C@H]1CO[C@H]2OCC[C@H]21)S(=O)(=O)c1ccc(N)cc1 . Reported remaining at 72 h?
> 95%
